Entries and their Redroot pigweed plant response rating
test system: pigweed; assay: Test B pre/postemergence pigweed; format: in vivo, Amaranthus retroflexus; settings: Preemergence, Rate 62 g/ha; scale of 0 to 10 where 0 is no effect and 10 is complete control
readout.name: Redroot pigweed plant response rating

>  <structure.string>
Cc1nsc(C)c1-n1c(=O)on(C(=O)N(c2ccc(Cl)cc2)C(C)C)c1=O

>  <readout.name>
Redroot pigweed plant response rating

>  <obs.value>
0

$$$$
>  <structure.string>
CCCCn1c(=O)on(C(=O)N(c2ccc(F)cc2F)C(C)C)c1=O

>  <readout.name>
Redroot pigweed plant response rating

>  <obs.value>
10

$$$$
>  <structure.string>
CC(C)N(C(=O)n1oc(=O)n(-c2cccnc2)c1=O)c1ccc(F)cc1

>  <readout.name>
Redroot pigweed plant response rating

>  <obs.value>
0

$$$$
>  <structure.string>
CC(C)N(C(=O)n1oc(=O)n(N(C)C)c1=O)c1ccc(F)cc1

>  <readout.name>
Redroot pigweed plant response rating

>  <obs.value>
10

$$$$
>  <structure.string>
CCCCc1ccc(N(C(=O)n2oc(=O)n(-c3ccccc3C)c2=O)C(C)C)cc1

>  <readout.name>
Redroot pigweed plant response rating

>  <obs.value>
0

$$$$
